biological target: Cell division control protein 42 homolog (Homo sapiens); assay: inhibition of fluorescent GTP binding to wildtype Cdc42 – biochemical, multiplex bead flow cytometry, Bodipy-FL-GTP, dose response (AID 1334); conditions: bead-based flow cytometry, Bodipy-FL-GTP binding to GST-Cdc42; at 100 µM (top of the series) unless noted
Results with a measured potency or affinity are listed apart.
Property Label: fluorescence, percent of control (lower = inhibition) (%)
Give your result in % as a bare value.

Some solved cases for reference:
Cc1c(C=O)c2ccccn2c1C(=O)c1ccc(Cl)c([N+](=O)[O-])c1 ... 31.5
COc1ccc(/C=N/NC(=O)c2cccnc2)cc1Cn1nc([N+](=O)[O-])c(Br)c1C ... 31.2
CN(Cc1ccccc1)c1ccc([N+](=O)[O-])cc1C(=O)O ... 41

Here is the next item to consider.
The compound listed as Cc1ccc(Nc2cc(C(=O)O)c3ccccc3n2)cc1C has a reported fluorescence, percent of control (lower = inhibition) of 60.9
